molecular target: HER2 expressed on the surface of cells (human, UniProt P04626 23-1255); experiment: cell-based or functional assay
Reported Endpoint: growth inhibition IC50 (potency), NCI-N87 cells, 5 days

Binder	Experimental Result
Variant 14022 (antibody, name in Kabat numbering, V domains shown, also called v14022) VH: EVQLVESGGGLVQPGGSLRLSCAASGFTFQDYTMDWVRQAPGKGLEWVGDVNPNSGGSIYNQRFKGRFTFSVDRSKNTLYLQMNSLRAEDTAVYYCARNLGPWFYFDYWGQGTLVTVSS VL: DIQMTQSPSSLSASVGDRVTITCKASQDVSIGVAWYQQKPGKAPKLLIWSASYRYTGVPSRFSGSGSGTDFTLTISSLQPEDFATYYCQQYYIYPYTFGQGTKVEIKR	5.2 nM
Variant 14018 (antibody, name in Kabat numbering, V domains shown, also called v14018) VH: EVQLVESGGGLVQPGGSLRLSCAASGFTFTDYTMDWVRQAPGKGLEWVGDVNPNSGGSIYNQRFKGRFTFSVDRSWNTLYLQMNSLRAEDTAVYYCARNLGPSFYFDYWGQGTLVTVSS VL: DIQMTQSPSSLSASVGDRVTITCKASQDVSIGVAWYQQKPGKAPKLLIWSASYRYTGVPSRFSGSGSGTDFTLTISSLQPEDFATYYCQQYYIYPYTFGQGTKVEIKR	2.1 nM
Variant 12471 (antibody, human IgG1, kappa, name in Kabat numbering, V domains shown, Kabat numbering; also called v12471; FSA version of v9996) VH: EVQLVESGGGLVQPGGSLRLSCAASGFTFADYTMDWVRQAPGKGLEWVGDVNPNSGGSIYNQRFKGRFTFSVDRSKNTLYLQMNSLRAEDTAVYYCARNLGPSFYFDYWGQGTLVTVSS VL: DIQMTQSPSSLSASVGDRVTITCKASQDVSIGVAWYQQKPGKAPKLLIYSASYRYTGVPSRFSGSGSGTDFTLTISSLQPEDFATYYCQQYYIYPATFGQGTKVEIKR	1.8 nM
